Source of measurements: patent US20020137929A1

System: IPOHE (Morningglory, Ivyleaf)
methodSummary: Postemergence herbicidal evaluation
Type: in vivo, Ipomoea hederacea
appliedConditions: postemergence, rate 0.0156 kg/ha
measurementKind: IPOHE herbicidal rating

{"columns": ["molecule", "reportedResult"],
 "data": [
  ["COC(=O)CN1C(=O)CSC1=Nc1cc(-n2c(=O)cc(C(F)(F)F)n(C)c2=O)c(F)cc1Cl [Compound 17]", 7.0],
  ["CCC1SC(=Nc2cc(-n3c(=O)cc(C(F)(F)F)n(C)c3=O)c(F)cc2Cl)N(C)C1=O (stereo not shown) [Compound 10]", 3.0],
  ["CN1C(=O)C(CC(=O)NS(C)(=O)=O)SC1=Nc1cc(-n2c(=O)cc(C(F)(F)F)n(C)c2=O)c(F)cc1Cl (stereo not shown) [Compound 97]", 7.0],
  ["CCOC(=O)CN1C(=O)C(CC(=O)OC(C)C(=O)OCC)S/C1=N/c1cc(-n2c(=O)cc(C(F)(F)F)n(C)c2=O)c(F)cc1Cl (stereo not shown) [Compound 87]", 9.0]
]}

* * *

System: CYPIR (Rice Flatsedge)
methodSummary: Preemergence weed control under flooded paddy conditions
Format: in vivo, Cyperus iria
appliedConditions: 0.2500 kg/ha, rated 3-4 weeks after treatment
Mark label 1 only for herbicidal effect rating, CYPIR values smaller than 4; exact matches and larger values are label 0.

{"columns": ["compound", "assayedSystem", "labelValue"],
 "data": [
  ["Cn1c(C(F)(F)F)cc(=O)n(-c2cc(N=C3SCC(=O)N3CC(=O)OCC3CC3)c(Cl)cc2F)c1=O", "CYPIR (Rice Flatsedge)", "label 0"],
  ["COCCN1C(=O)CSC1=Nc1cc(-n2c(=O)cc(C(F)(F)F)n(C)c2=O)c(F)cc1Cl", "CYPIR (Rice Flatsedge)", "label 1"],
  ["Cn1c(C(F)(F)F)cc(=O)n(-c2cc(N=C3SCC(=O)N3Cc3ccc(Br)cc3)c(Cl)cc2F)c1=O", "CYPIR (Rice Flatsedge)", "label 0"],
  ["CN1C(=O)C(CC(=O)NO)SC1=Nc1cc(-n2c(=O)cc(C(F)(F)F)n(C)c2=O)c(F)cc1Cl (centres unmarked)", "CYPIR (Rice Flatsedge)", "label 0"],
  ["Cn1c(C(F)(F)F)cc(=O)n(-c2cc(N=C3SCC(=O)N3Cc3cccc(C(F)(F)F)c3)c(Cl)cc2F)c1=O", "CYPIR (Rice Flatsedge)", "label 0"],
  ["Cn1c(C(F)(F)F)cc(=O)n(-c2cc(N=C3SCC(=O)N3Cc3ccco3)c(Cl)cc2F)c1=O", "CYPIR (Rice Flatsedge)", "label 0"],
  ["Cn1c(C(F)(F)F)cc(=O)n(-c2cc(N=C3SCC(=O)N3C3CC3)c(Cl)cc2F)c1=O", "CYPIR (Rice Flatsedge)", "label 1"]
]}

* * *

System: SETVI (Foxtail, Green)
methodSummary: Postemergence herbicidal evaluation
Type: in vivo, Setaria viridis
appliedConditions: postemergence, rate 0.0630 kg/ha
Procedure: In the tests, seedling plants are grown in jiffy flats for about two weeks. The test compounds are dispersed in 50/50 acetone/water mixtures containing 0.5% TWEEN®20, a polyoxyethylene sorbitan monolaurate surfactant of Atlas Chemical Industries, in sufficient quantities to provide the equivalent of about 0.0156 kg to 0.500 kg per hectare of active compound when applied to the plants through a spray nozzle operating at 40 psi for a predetermined time. […]
SETVI herbicidal rating listing for selected compounds.

{"columns": ["compound", "assayedSystem", "SETVI herbicidal rating"],
 "data": [
  ["CCOC(=O)CN1C(=O)C(=C(C)C)S/C1=N/c1cc(-n2c(=O)cc(C(F)(F)F)n(C)c2=O)c(F)cc1Cl", "SETVI (Foxtail, Green)", 4.0],
  ["CCOC(=O)CN1C(=O)C(CC(=O)OCCF)SC1=Nc1cc(-n2c(=O)cc(C(F)(F)F)n(C)c2=O)c(F)cc1Cl (stereo not shown)", "SETVI (Foxtail, Green)", 9.0],
  ["CN1C(=O)C(CC(N)=O)SC1=Nc1cc(-n2c(=O)cc(C(F)(F)F)n(C)c2=O)c(F)cc1Cl (stereo not shown)", "SETVI (Foxtail, Green)", 9.0],
  ["Cn1c(C(F)(F)F)cc(=O)n(-c2cc(N=C3SCC(=O)N3[C@H](Cc3ccccc3)C(=O)O)c(Cl)cc2F)c1=O", "SETVI (Foxtail, Green)", 1.0]
]}
